Parameter: pIC50. Scope: all listed entries.
- target: recombinant human mPGES-1 (Homo sapiens, UniProt O14684)
- Construct: made in house; host or cells: Rosetta E. coli (membrane/microsome fraction)
- protocol-summary: Assay A: mPGES-1 enzyme assay (HTRF detection of PGE2)
- Assay type: biochemical
- run-conditions: biological assay A; microsomes from E. coli expressing recombinant human mPGES-1; read-out: mPGES-1 inhibitory effect IC50
pIC50: −log10 of the molar value.
measure-name: pIC50

INSERT INTO measurements (compound, result_number) VALUES
  ('Cn1c(Nc2cc(CNC(=O)C3(C(F)(F)F)CC3)ccc2Cl)nc2cc(F)c(N3CCC(C)(C)CC3)cc21', 7.85),
  ('CC(C(=O)NCc1ccc(Cl)c(Nc2nc3cc(Cl)c(N4CCCC(C(F)(F)F)C4)cc3n2C)c1)C(F)(F)F (stereo not shown)', 8.59),
  ('O=C(NCc1ccc(Cl)c(Nc2nc3cc(Cl)c(N4CCC(C(F)(F)F)CC4)cc3[nH]2)c1)C1(C(F)(F)F)CC1', 8.06),
  ('Cn1c(Nc2cc(CNC(=O)C(C)(C)C)ccc2C(F)(F)F)nc2cc(Cl)c(N3CCC(C(F)(F)F)CC3)cc21', 8.62),
  ('CC1CCCCC1C(=O)NCc1ccc(Cl)c(Nc2nc3cc(N4CCCC4)ccc3[nH]2)c1 (stereo not shown)', 7.28),
  ('CC(=O)N1CCN(c2cc3c(cc2Cl)nc(Nc2cc(CNC(=O)C4(C(F)(F)F)CC4)ccc2Cl)n3C)CC1', 7.21),
  ('CN(C)C(=O)C1CCCN1c1cc2[nH]c(Nc3cc(CNC(=O)C(C)(C)C)ccc3Cl)nc2cc1Cl (stereo not shown)', 6.67);

====

- target: recombinant human mPGES-1 (Homo sapiens)
- Construct: made in house; host or cells: Rosetta E. coli (membrane/microsome fraction)
- Sequence (O14684 1-152): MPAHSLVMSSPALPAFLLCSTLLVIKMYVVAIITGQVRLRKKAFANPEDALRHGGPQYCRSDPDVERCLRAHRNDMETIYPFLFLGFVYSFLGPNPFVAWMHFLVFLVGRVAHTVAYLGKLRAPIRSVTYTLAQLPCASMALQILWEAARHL
- protocol-summary: Assay A: mPGES-1 enzyme assay (HTRF detection of PGE2)
- Format: biochemical
- run-conditions: biological assay A; microsomes from E. coli expressing recombinant human mPGES-1; read-out: mPGES-1 inhibitory effect IC50
measure-name: IC50 (nM)

INSERT INTO results (molecule, result_number) VALUES
  ('Cn1c(Nc2cc(CNC(=O)C3(C(F)(F)F)CC3)ccc2Cl)nc2cc(F)c(N3CCC(C(F)(F)F)CC3)cc21 [Example 86]', 7.1),
  ('CC1(C(=O)NCc2ccc(Cl)c(Nc3nc4ccc(N5CCCC5)cc4[nH]3)c2)CCCCC1 [Example 118]', 53),
  ('Cn1c(Nc2cc(CNC(=O)C3(C(F)(F)F)CC3)ccc2Cl)nc2cc(Cl)c(N3CCN(c4ccc(C(F)(F)F)cc4)CC3)cc21 [Example 83]', 1.3),
  ('COC[C@@H]1CCCN1c1cc2[nH]c(Nc3cc(CNC(=O)C4(C(F)(F)F)CC4)ccc3Cl)nc2cc1Cl [Example 133]', 25);

====

- target: recombinant human mPGES-1 (Homo sapiens, UniProt O14684)
- Construct: made in house; host or cells: Rosetta E. coli (membrane/microsome fraction)
- protocol-summary: Assay A: mPGES-1 enzyme assay (HTRF detection of PGE2)
- Type: biochemical
- run-conditions: biological assay A; microsomes from E. coli expressing recombinant human mPGES-1; read-out: mPGES-1 inhibitory effect IC50
pIC50: −log10 of the molar value.
Classification field: met = pIC50 at or over 8; not met = pIC50 under 8.

INSERT INTO measurements (compound, target, discrete_label) VALUES
  ('CN(C)CCn1c(Nc2cc(CNC(=O)C3(C(F)(F)F)CC3)ccc2Cl)nc2cc(Cl)c(N3CCC(C(F)(F)F)CC3)cc21 [Example 80]', 'recombinant human mPGES-1 (Homo sapiens, UniProt O14684)', 'not met'),
  ('CC(C)N1CCN(c2cc3c(cc2Cl)nc(Nc2cc(CNC(=O)C4(C(F)(F)F)CC4)ccc2Cl)n3C)CC1 [Example 125]', 'recombinant human mPGES-1 (Homo sapiens, UniProt O14684)', 'not met'),
  ('CN1CCN(c2cc3[nH]c(Nc4cc(CNC(=O)C5(C)CCCCC5)ccc4Cl)nc3cc2Cl)CC1 [Example 120]', 'recombinant human mPGES-1 (Homo sapiens, UniProt O14684)', 'not met'),
  ('Cn1c(Nc2cc(CNC(=O)C3(C(F)(F)F)CC3)ccc2Cl)nc2cc(Cl)c(N3CCC(c4ccc(F)cc4)CC3)cc21 [Example 91]', 'recombinant human mPGES-1 (Homo sapiens, UniProt O14684)', 'met'),
  ('O=C(NCc1ccc(Cl)c(Nc2nc3cc(Cl)c(N4CCC(C(F)(F)F)CC4)cc3n2CC2CC2)c1)C1(C(F)(F)F)CC1 [Example 88]', 'recombinant human mPGES-1 (Homo sapiens, UniProt O14684)', 'met'),
  ('CC(C)(C)C(=O)NCc1ccc(Cl)c(Nc2nc3cc(N4CCC(F)(F)C4)c(Cl)cc3[nH]2)c1 [Example 2]', 'recombinant human mPGES-1 (Homo sapiens, UniProt O14684)', 'not met'),
  ('Cn1c(Nc2c(Cl)ccc(CNC(=O)C(C)(C)C)c2Cl)nc2cc(Cl)c(N3CCC(C(F)(F)F)CC3)cc21 [Example 5]', 'recombinant human mPGES-1 (Homo sapiens, UniProt O14684)', 'met'),
  ('O=C(NCc1ccc(Cl)c(Nc2nc3cc(N4CCCC4)ccc3[nH]2)c1)c1ccc(OCc2ccccc2)cc1 [Example 21]', 'recombinant human mPGES-1 (Homo sapiens, UniProt O14684)', 'not met'),
  ('CCCC(C)(C)C(=O)NCc1ccc(Cl)c(Nc2nc3cc(N4CCCC4)ccc3[nH]2)c1 [Example 18]', 'recombinant human mPGES-1 (Homo sapiens, UniProt O14684)', 'not met'),
  ('O=S(=O)(NCc1ccc(Cl)c(Nc2nc3ccc(N4CCCC4)cc3[nH]2)c1)C1CC1 [Example 30]', 'recombinant human mPGES-1 (Homo sapiens, UniProt O14684)', 'not met'),
  ('CC1(C(=O)NCc2ccc(Cl)c(Nc3nc4ccc(N5CCOCC5)cc4[nH]3)c2)CCCCC1 [Example 119]', 'recombinant human mPGES-1 (Homo sapiens, UniProt O14684)', 'not met'),
  ('Cn1c(Nc2cc(CNC(=O)C(C)(F)F)ccc2Cl)nc2cc(Cl)c(N3CCN(c4ccc(C(F)(F)F)cc4)CC3)cc21 [Example 96]', 'recombinant human mPGES-1 (Homo sapiens, UniProt O14684)', 'met'),
  ('Cn1c(Nc2cc(CNC(=O)C3(C)CCCCC3)ccc2Cl)nc2ccc(N3CCCC3)cc21 [Example 123]', 'recombinant human mPGES-1 (Homo sapiens, UniProt O14684)', 'not met'),
  ('Cn1c(Nc2cc(CNC(=O)C3(C(F)(F)F)CC3)ccc2Cl)nc2cc(C#N)c(N3CCC(C(F)(F)F)CC3)cc21 [Example 82]', 'recombinant human mPGES-1 (Homo sapiens, UniProt O14684)', 'met'),
  ('Cn1c(Nc2cc(CNC(=O)C3(C(F)(F)F)CC3)ccc2Cl)nc2cc(Cl)c(N3CCC(C(F)(F)F)CC3)cc21 [Example 71]', 'recombinant human mPGES-1 (Homo sapiens, UniProt O14684)', 'met'),
  ('N#Cc1cc2nc(Nc3cc(CNC(=O)C4(C(F)(F)F)CC4)ccc3Cl)[nH]c2cc1N1CCCC1 [Example 127]', 'recombinant human mPGES-1 (Homo sapiens, UniProt O14684)', 'not met'),
  ('O=S(=O)(NCc1ccc(Cl)c(Nc2nc3cc(N4CCCC4)ccc3[nH]2)c1)c1ccco1 [Example 29]', 'recombinant human mPGES-1 (Homo sapiens, UniProt O14684)', 'not met'),
  ('Cn1c(Nc2cc(CNC(=O)C(C)(O)C(F)(F)F)ccc2Cl)nc2cc(Cl)c(N3CCCC(C(F)(F)F)C3)cc21 (stereo not shown) [Example 14]', 'recombinant human mPGES-1 (Homo sapiens, UniProt O14684)', 'met'),
  ('Cn1c(Nc2cc(CNC(=O)C3(C(F)(F)F)CC3)ccc2Cl)nc2cc(Cl)c(N3CCN(c4ccccc4)CC3)cc21 [Example 90]', 'recombinant human mPGES-1 (Homo sapiens, UniProt O14684)', 'met'),
  ('CN1CCN(c2cc3c(cc2Cl)nc(Nc2cc(CNC(=O)C4(C(F)(F)F)CC4)ccc2Cl)n3C)CC1 [Example 11]', 'recombinant human mPGES-1 (Homo sapiens, UniProt O14684)', 'not met');
